Origin of the recorded values: ChEMBL document CHEMBL1770093

Known pIC50 of a selection of compounds
System: Trypanosoma brucei brucei
Test: Antitrypanosomal activity against bloodstream form of Trypanosoma brucei brucei
Assay type: functional, organism-based
pIC50: −log10 of the molar value. Structures can show the parent of a compound that is named as a salt.

compound	pIC50
COc1ccc2cc3[n+](cc2c1OC)CCc1cc2c(cc1-3)OCO2 [BERBERINE SULFATE]	5.96
CCC1(CC)c2c(ccc(OC)c2OC)C(=O)c2c3cc4c(cc3cc[n+]21)OCO4.[Cl-]	8.04
Cc1ccc(C(=O)Nc2ccc(S(=O)(=O)O)c3cc(S(=O)(=O)O)cc(S(=O)(=O)O)c23)cc1NC(=O)c1cccc(NC(=O)Nc2cccc(C(=O)Nc3cc(C(=O)Nc4ccc(S(=O)(=O)O)c5cc(S(=O)(=O)O)cc(S(=O)(=O)O)c45)ccc3C)c2)c1	6.60

###

Tested on: Plasmodium falciparum
Assay: Antimalarial activity against Plasmodium falciparum by flow cytometry
Assay type: functional, organism-based
Structures can show the parent of a compound that is named as a salt.
Known IC50 of a selection of molecules
parameter-measured: IC50 (nM)

> print(dat)
                                   molecule  numeric.result
1  COc1ccc2cc3[n+](cc2c1OC)CCc1cc2c(cc1-3)OCO2 [BERBERINE SULFATE]             800
2  CCC1(CC)c2c(ccc(OC)c2OC)C(=O)c2c3cc4c(cc3cc[n+]21)OCO4.[Cl-]              36
